// AC50 lookup, one value per entry
# system: PKR R532W (Homo sapiens, UniProt P30613, R532W)
# Sequence (P30613 whole entry R532W): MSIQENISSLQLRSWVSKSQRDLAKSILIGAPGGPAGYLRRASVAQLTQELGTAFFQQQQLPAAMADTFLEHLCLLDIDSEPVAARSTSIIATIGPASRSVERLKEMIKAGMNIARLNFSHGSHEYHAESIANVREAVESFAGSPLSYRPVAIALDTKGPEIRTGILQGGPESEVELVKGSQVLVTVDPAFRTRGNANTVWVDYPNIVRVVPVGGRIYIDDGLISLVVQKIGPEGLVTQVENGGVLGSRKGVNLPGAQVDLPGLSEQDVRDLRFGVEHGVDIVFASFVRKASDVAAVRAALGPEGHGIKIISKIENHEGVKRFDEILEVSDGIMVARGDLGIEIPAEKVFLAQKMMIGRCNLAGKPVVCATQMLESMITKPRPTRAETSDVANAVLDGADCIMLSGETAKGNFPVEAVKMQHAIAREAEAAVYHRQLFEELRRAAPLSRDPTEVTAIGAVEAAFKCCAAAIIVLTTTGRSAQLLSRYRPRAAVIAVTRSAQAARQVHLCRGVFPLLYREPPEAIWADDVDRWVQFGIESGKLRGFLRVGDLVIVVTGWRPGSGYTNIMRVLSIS
# protocol-details: PKR Mutant Assay, AC50 against PKR R532W
# Assay type: biochemical
# test-context: mutant PKR R532W enzyme

| compound | AC50 |
| --- | --- |
| O=C(c1ccc(NS(=O)(=O)c2cc(F)cc3cccnc23)cc1)N1CCC(O)(c2ccccc2)CC1 | < 0.1 µM |
| O=C(c1ccc(NS(=O)(=O)c2ccc(F)c3cccnc23)cc1)N1CCC(O)(Cc2ccccc2F)CC1 | < 0.1 µM |
| O=C(c1ccc(NS(=O)(=O)c2cccc3cccnc23)cc1)N1CCC(O)(c2ccnc(F)c2)CC1 | 0.101 to 1 µM |

Quick check: AC50 on PKR R532W (Homo sapiens, UniProt P30613, R532W), item O=C(c1ccc(NS(=O)(=O)c2cccc3cccnc23)cc1)N1CCC(O)(c2cccc(F)c2Cl)CC1 ?
< 0.1 µM

Then what about the compound O=C(c1ccc(NS(=O)(=O)c2c(F)ccc3ncsc23)cc1)N1CCC(O)(c2ccccc2Cl)CC1 ?
1.01 to 10 µM

Follow-up item: Cc1cc(F)ccc1C1(O)CCN(C(=O)c2ccc(NS(=O)(=O)c3cccc4cccnc34)cc2)CC1
< 0.1 µM

For N#Cc1cc(C(=O)N2CCC(O)(c3ccccc3Cl)CC2)ccc1NS(=O)(=O)c1cccc2cccnc12 then?
0.101 to 1 µM

====

# system: PKR R532W (Homo sapiens, UniProt P30613, R532W)
# protocol-details: PKR Mutant Assay, AC50 against PKR R532W
# Type: biochemical
# test-context: mutant PKR R532W enzyme
Catalogue of AC50 values

| compound | test-value |
| --- | --- |
| O=C(c1ccc(NS(=O)(=O)c2cccc3cccnc23)cc1)N1CCC(O)(c2ccccc2O)CC1 | < 100 nM |

Please give the measured AC50 for this compound: CC(C)C1(O)CCN(C(=O)c2ccc(NS(=O)(=O)c3cccc4cccnc34)cc2)CC1
< 100 nM

Can you check O=C(c1ccc(NS(=O)(=O)c2cccc3cc(F)cnc23)cc1)N1CCC(O)(Cc2ccccc2)CC1 next?
< 100 nM

// next record Cc1cc(C(=O)N2CCC(O)(Cc3ccccc3)CC2)ccc1NS(=O)(=O)c1cccc2cccnc12
< 100 nM

Now try O=C(c1ccc(NS(=O)(=O)c2cccc3cccnc23)c(OC(F)(F)F)c1)N1CCC(O)(c2ccccc2Cl)CC1 .
101 to 1000 nM

Ok, now O=C(c1ccc(NS(=O)(=O)c2cccc3scnc23)cc1)N1CCC(O)(COCC(F)(F)F)CC1
101 to 1000 nM

Here is the next compound: O=C(c1ccc(NS(=O)(=O)c2cccc3scnc23)cc1)N1CCC(O)(CC2CC2(F)F)CC1 (stereo not drawn)
< 100 nM

Repeat for the following compound: CC(C)CC1(O)CCN(C(=O)c2ccc(NS(=O)(=O)c3cc(F)cc4sc(N)nc34)cc2)CC1
< 100 nM

And then O=C(c1ccc(NS(=O)(=O)c2cccc(Cl)c2)cc1)N1CCC(O)(Cc2ccccc2)CC1 , what is it?
101 to 1000 nM

Can you handle O=C(c1ccc(NS(=O)(=O)c2cccc3ncccc23)cc1)N1CCC(O)(c2ccccc2)CC1 next?
1010 to 10000 nM

Check O=C(c1ccc(NS(=O)(=O)c2cccc3nccnc23)c(F)c1)N1CCC(O)(c2ccccc2Cl)CC1 too.
101 to 1000 nM
